# system.under.test: Cdk4/CyclinD1 (Homo sapiens (Human), UniProt P11802)
# Sequence (P11802 whole entry): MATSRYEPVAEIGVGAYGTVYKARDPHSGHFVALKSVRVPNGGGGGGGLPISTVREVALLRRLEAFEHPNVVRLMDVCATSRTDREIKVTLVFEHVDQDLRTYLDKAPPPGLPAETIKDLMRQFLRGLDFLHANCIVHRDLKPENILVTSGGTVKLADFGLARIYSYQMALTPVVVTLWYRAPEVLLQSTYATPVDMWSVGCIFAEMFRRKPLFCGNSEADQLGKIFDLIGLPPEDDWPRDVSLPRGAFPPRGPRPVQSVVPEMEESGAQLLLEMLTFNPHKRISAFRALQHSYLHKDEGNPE
# Sequence (P24385 whole entry partner): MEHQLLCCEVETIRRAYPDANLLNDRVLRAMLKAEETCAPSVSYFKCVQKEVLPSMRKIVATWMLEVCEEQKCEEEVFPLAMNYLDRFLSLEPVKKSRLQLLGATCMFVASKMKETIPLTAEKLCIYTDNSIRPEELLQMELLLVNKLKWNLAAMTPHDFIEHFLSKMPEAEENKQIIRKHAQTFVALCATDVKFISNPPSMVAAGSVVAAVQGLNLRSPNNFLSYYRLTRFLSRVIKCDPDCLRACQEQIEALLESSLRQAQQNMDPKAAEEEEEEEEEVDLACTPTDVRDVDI
# experimental.protocol: Cdk4 kinase inhibition assay with recombinant Cdk4/CyclinD1, Rb substrate, [33P]-ATP filter plate
# reported.conditions: 25 μM ATP, read-out: Cdk 4 IC50
reported.metric: IC50 (nM)
Your answer should be a plain number; it is taken to be in nM.

So what's the measured IC50 for this one? CN(C)C1CCN(c2ccc(Nc3ncc4c5ccncc5n([C@H]5CCC[C@H]5O)c4n3)nc2)CC1
580

So what's the measured IC50 for this one? COCCn1c2cnccc2c2cnc(Nc3ccc(N4CCNCC4)cn3)nc21
370

So what's the measured IC50 for this one? c1ccc2c(c1)c1cnc(Nc3ccc(N4CCNCC4)cn3)nc1n2C1CCCCCC1
2.1

So what's the measured IC50 for this one? O[C@H]1CCN(c2ccc(Nc3ncc4c5ccccc5n(C5CCCC5)c4n3)nc2)C1
149

====

Items are presented alongside their recorded IC50.
# system.under.test: Cdk4/CyclinD1 (Homo sapiens (Human), UniProt P11802)
# experimental.protocol: Cdk4 kinase inhibition assay with recombinant Cdk4/CyclinD1, Rb substrate, [33P]-ATP filter plate
# reported.conditions: 25 μM ATP, read-out: Cdk 4 IC50
Your answer should be a plain number; it is taken to be in nM.

Study these solved cases before continuing.
INSERT INTO assay_data (compound, test_result) VALUES
  ('c1cc2c3cnc(Nc4ccc(NCC5COCCN5)nn4)nc3n(C3CCCC3)c2cn1 (stereo not shown) [Example 100]', 6.2),
  ('c1cncc(-c2ccc(Nc3ncc4c5ccncc5n(C5CCCC5)c4n3)nn2)c1 [Example 267]', 73),
  ('CCN(CC)C1CCN(c2ccc(Nc3ncc4c5ccnnc5n(C5CCCC5)c4n3)nc2)CC1 [Example 281]', 11);

Now consider the entry below.
So what's the measured IC50 for this one? N#CCC1CCN(c2ccc(Nc3ncc4c5ccnc(F)c5n(C5CCCC5)c4n3)nc2)CC1 [Example 173]
56

====

# system.under.test: Cdk4/CyclinD1 (Homo sapiens (Human), UniProt P11802)
# experimental.protocol: Cdk4 kinase inhibition assay with recombinant Cdk4/CyclinD1, Rb substrate, [33P]-ATP filter plate
# Type: biochemical
# reported.conditions: 25 μM ATP, read-out: Cdk 4 IC50
reported.metric: pIC50
// returns pIC50 (minus log10 of molar concentration), number only

Study these solved cases before continuing.
INSERT INTO measurements (compound_smiles, reported_metric, test_result) VALUES
  ('O=C1CN(Cc2ccc(Nc3ncc4c5ccncc5n(C5CCCC5)c4n3)nc2)CCN1', 'pIC50', 8.40),
  ('c1ccc2c(c1)c1cnc(Nc3ccc(N4CCNCC4)cc3)nc1n2C1CCCC1', 'pIC50', 8.70),
  ('OC[C@H](O)CNC1CCN(c2ccc(Nc3ncc4c5ccncc5n(C5CCCC5)c4n3)nn2)CC1', 'pIC50', 8.89),
  ('CCOC(=O)CN1CCN(Cc2ccc(Nc3ncc4c5ccncc5n(C5CCCC5)c4n3)nc2)CC1', 'pIC50', 8.28);

So what's the measured pIC50 for this one? O=C(O)CN1CCN(Cc2ccc(Nc3ncc4c5ccncc5n(C5CCCC5)c4n3)nc2)CC1
9.00

So what's the measured pIC50 for this one? c1ccc2c(c1)c1cnc(Nc3ccc(N4CCNCC4)cc3)nc1n2C1CCOCC1
8.70

So what's the measured pIC50 for this one? CCN(CCO)C1CCN(c2ccc(Nc3ncc4c5ccncc5n(C5CCCC5)c4n3)nn2)CC1
8.28
